Biological target: T1, His-tagged P3028 (human, also: His tag, length and end not given here)
T1 construct: in solution at 0.5 ug/mL, detected with mouse anti-His antibody and rabbit anti-mouse peroxidase (rampo); also called PGE73; His-tag-P3028; not shown: His tag
T1 peptide: VFDEFKPLVEEPQNLIK
Assay: PEPSCAN ELISA, peptide on chip;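 also: binding detected by peroxidase ELISA with ABTS, OD405 colour imaged by CCD camera before and after staining, raw OD405 reported as rampo units, air-bubble wells scored 0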
Ends that are not written are not given here.
MEASURED PROPERTY: RAMPO Score (rampo units)
Give the quantity in rampo units, number only.

KKLDTFFVKLSLFLER [SEQ ID NO 380] yielded RAMPO Score of 360

KKLDTFFVKLSLFTEY [SEQ ID NO 393] yielded RAMPO Score of 311

QKLDTFFVKLSLFTER [SEQ ID NO 278] yielded RAMPO Score of 455

AKLDTFFVKLSLFTER [SEQ ID NO 268] yielded RAMPO Score of 466

KKLDTFFVKLSLFTEF [SEQ ID NO 388] yielded RAMPO Score of 297

KKLDTFFVKLSLNTER [SEQ ID NO 368] yielded RAMPO Score of 862

src = patent US20180177842A1
